meta.source: patent US4622337A

# assay_details: Mammalian toxicity in rats
# condition_context: rat, in vivo, iv
value_kind: LD50 (mg/kg)
Write the value in mg/kg as a bare number.

Problem: For CC/C=C\[C@@H]1[C@@H](C(=O)OCc2coc(Cc3ccccc3)c2)C1(C)C , what is its reported LD50?
Solution: 120

Continue with the next compound.
Problem: For CC(C)=C[C@@H]1[C@@H](C(=O)OCc2coc(Cc3ccccc3)c2)C1(C)C [Bioresmethrin, reference compound] , what is its reported LD50?
Solution: 340

* * *

# System: mustard beetles (Phaedon cochleariae Fab)
# assay_details: Relative toxicity to mustard beetles, topical micro drop
# Format: in vivo
# condition_context: 5-benzyl-3-furylmethyl (1R)-trans-chrysanthemate = 1000; inverse ratio of LD50; topical, 48 hours
value_kind: Relative Toxicity, Mustard Beetles

Would you please look over these solved cases?
Problem: GET /values?readout=Relative Toxicity, Mustard Beetles&system=mustard beetles (Phaedon cochleariae Fab)&item= CCCOC(=O)C=C[C@@H]1[C@@H](C(=O)OCc2coc(Cc3ccccc3)c2)C1(C)C [Compound P19C]
Solution: 40

Problem: Here is the next molecule: CC/C=C\[C@@H]1[C@@H](C(=O)OCc2cccc(Cc3ccccc3)c2)C1(C)C [Compound S]
Solution: 170

Problem: Here is the next molecule: CCOC(=O)C(=C[C@@H]1[C@@H](C(=O)OCc2coc(Cc3ccccc3)c2)C1(C)C)CC [Compound P19G]
Solution: 500

Continue with the next molecule.
Problem: GET /values?readout=Relative Toxicity, Mustard Beetles&system=mustard beetles (Phaedon cochleariae Fab)&item= CC1(C)[C@H](C(=O)OC(C#N)c2cccc(Oc3ccccc3)c2)[C@@H]1C=C(F)F (stereo partly shown) [Compound P31F]
Solution: 2200

* * *

# System: female flies (houseflies)
# assay_details: Synergisability with sesamex, 2 μg per fly pretreatment
# Format: in vivo, Musca domestica
# condition_context: sesamex, 2 μg. per fly
value_kind: Approx. Synergistic factor

Problem: GET /values?readout=Approx. Synergistic factor&system=female flies (houseflies)&item= CC(C)=C[C@@H]1[C@@H](C(=O)OCc2coc(Cc3ccccc3)c2)C1(C)C [Bioresmethrin, reference compound]
Solution: ~9.4

Problem: Here is the next molecule: CC1(C)[C@H](C=C(Cl)Cl)[C@H]1C(=O)OCc1cccc(Oc2ccccc2)c1 (racemic) [Compound P21F]
Solution: ~39

Problem: Here is the next molecule: CC/C=C\[C@@H]1[C@@H](C(=O)OCc2coc(Cc3ccccc3)c2)C1(C)C
Solution: ~13

---
Problem: GET /values?readout=Approx. Synergistic factor&system=female flies (houseflies)&item= CC1(C)[C@H](C(=O)OCc2cccc(Oc3ccccc3)c2)[C@@H]1C=C(Cl)Cl (relative stereo) [Compound P21G]
Solution: ~22

Problem: Here is the next molecule: CC1(C)[C@H](C(=O)OCc2coc(Cc3ccccc3)c2)[C@@H]1C=C(Cl)Cl (relative stereo) [Compound P21D]
Solution: ~12

Problem: Here is the next molecule: CC/C=C\[C@H]1[C@@H](C(=O)OCc2coc(Cc3ccccc3)c2)C1(C)C [Compound A cis]
Solution: ~6

Problem: Here is the next molecule: CC(C)=CC1C(C(=O)OCc2coc(Cc3ccccc3)c2)C1(C)C (racemic) [reference compound]
Solution: ~13

* * *

# assay_details: Mammalian toxicity in rats
# condition_context: rat, in vivo, po
value_kind: LD50

Would you please look over these solved cases?
Problem: For C#CCc1ccc(COC(=O)[C@@H]2[C@@H](C=C(Cl)Cl)C2(C)C)o1 (relative stereo) , what is its reported LD50?
Solution: 300 mg/kg

Problem: Here is the next molecule: CC1(C)[C@H](C=C(Cl)Cl)[C@H]1C(=O)OCc1cccc(Oc2ccccc2)c1 (relative stereo)
Solution: > 300 mg/kg

Problem: Here is the next molecule: CC/C=C\[C@@H]1[C@@H](C(=O)OCc2coc(Cc3ccccc3)c2)C1(C)C [Compound A]
Solution: 800 to 1000 mg/kg

Continue with the next molecule.
Problem: For CC(C)=C[C@@H]1[C@@H](C(=O)OCc2coc(Cc3ccccc3)c2)C1(C)C [Bioresmethrin, reference compound] , what is its reported LD50?
Solution: > 8000 mg/kg

* * *

# System: mustard beetles (Phaedon cochleariae Fab)
# assay_details: Relative toxicity to mustard beetles, topical micro drop
# Assay type: in vivo
# condition_context: 5-benzyl-3-furylmethyl (1R)-trans-chrysanthemate = 1000; inverse ratio of LD50; topical, 48 hours
value_kind: Relative Toxicity, Mustard Beetles
// keep it numeric: no unit symbol after the value

Would you please look over these solved cases?
Problem: GET /values?readout=Relative Toxicity, Mustard Beetles&system=mustard beetles (Phaedon cochleariae Fab)&item= CCC=C(C)C1C(C(=O)OCc2coc(Cc3ccccc3)c2)C1(C)C (stereo not shown)
Solution: 10

Problem: Here is the next molecule: CC1(C)[C@H](C=C(F)F)[C@H]1C(=O)OC(C#N)c1cccc(Oc2ccccc2)c1 (stereo partly shown) [Compound P31C]
Solution: 730

Problem: Here is the next molecule: CC1(C)[C@H](C=C(Br)Br)[C@H]1C(=O)OCc1coc(Cc2ccccc2)c1 [Compound P21B]
Solution: 1900

Problem: Here is the next molecule: CC1(C)[C@H](C(=O)OC(C#N)c2cccc(Oc3ccccc3)c2)[C@@H]1C=C(Cl)Cl (stereo partly shown) [Compound P29J]
Solution: 4200

---
Problem: GET /values?readout=Relative Toxicity, Mustard Beetles&system=mustard beetles (Phaedon cochleariae Fab)&item= CC1(C)[C@H](C(=O)OC(C#N)c2cccc(Oc3ccccc3)c2)[C@@H]1C=C(Br)Br (stereo partly shown) [Compound P29B]
Solution: 11000

Problem: Here is the next molecule: CC1(C)[C@H](C=C(F)F)[C@H]1C(=O)OCC#CCOc1ccccc1
Solution: 70

Problem: Here is the next molecule: CC/C=C\[C@@H]1[C@@H](C(=O)OCc2coc(Cc3ccccc3)c2)C1(C)C
Solution: 2000

Problem: Here is the next molecule: CC1(C)[C@H](C=C(Br)Br)[C@H]1C(=O)OC(C#N)c1cccc(Oc2ccccc2)c1 (stereo partly shown) [Compound P29D]
Solution: 5200

Problem: Here is the next molecule: CC1(C)C(C=C(Cl)Cl)C1C(=O)OCc1cccc(Cc2ccccc2)c1 (stereo not shown) [Compound P21K]
Solution: 350

* * *

# System: mustard beetles (Phaedon cochleariae Fab)
# assay_details: Relative toxicity to mustard beetles, topical micro drop
# Assay type: in vivo
# condition_context: 5-benzyl-3-furylmethyl (1R)-trans-chrysanthemate = 1000; inverse ratio of LD50; topical, 48 hours
Measured Relative Toxicity, Mustard Beetles accompanies every entry in the list below.
// keep it numeric: no unit symbol after the value

Would you please look over these solved cases?
Problem: For CC1(C)[C@H](C=C(Cl)Cl)[C@H]1C(=O)OC(C#N)c1cccc(C(=O)c2ccccc2)c1 (relative stereo) [Compound P39F] , what is its reported Relative Toxicity, Mustard Beetles?
Solution: 600

Problem: Here is the next compound: CCC(=C[C@@H]1[C@@H](C(=O)OCc2coc(Cc3ccccc3)c2)C1(C)C)C(=O)OC [Compound P19F]
Solution: 360

---
Problem: For C=CCC1=C(C)C(OC(=O)[C@@H]2[C@@H](C=C(F)F)C2(C)C)CC1=O (stereo partly drawn) [ME9] , what is its reported Relative Toxicity, Mustard Beetles?
Solution: 50

Problem: Here is the next compound: CC1(C)[C@H](C(=O)OCc2cccc(Oc3ccccc3)c2)[C@@H]1C=C(Cl)Cl (relative stereo) [Compound P21G]
Solution: 780

Problem: Here is the next compound: CC1(C)C(C=C(Cl)Cl)C1C(=O)OCC#CCOc1ccccc1 (racemic) [Compound ME5]
Solution: 40

* * *

Measured Relative Toxicity, Mustard Beetles accompanies every entry in the list below.
# Test system: mustard beetles (Phaedon cochleariae Fab)
# assay_details: Relative toxicity to mustard beetles, topical micro drop
# Assay type: in vivo
# condition_context: 5-benzyl-3-furylmethyl (1R)-trans-chrysanthemate = 1000; inverse ratio of LD50; topical, 48 hours
// keep it numeric: no unit symbol after the value

Would you please look over these solved cases?
Problem: For CCOC(=O)C(Cl)=C[C@@H]1[C@@H](C(=O)OCc2coc(Cc3ccccc3)c2)C1(C)C [Compound P24B] , what is its reported Relative Toxicity, Mustard Beetles?
Solution: 310

Problem: Here is the next compound: C=CCC1=C(C)C(OC(=O)[C@@H]2[C@@H](/C=C\CC)C2(C)C)CC1=O (some centres unmarked) [Q]
Solution: 69

Problem: Here is the next compound: CC1(C)[C@H](C(=O)OCC#CCOc2ccccc2)[C@@H]1C=C(F)F [Compound ME3]
Solution: 30

Continue with the next compound.
Problem: For CC1(C)[C@H](C=C(Cl)Cl)[C@H]1C(=O)OCc1cccc(C(=O)c2ccccc2)c1 (racemic) [Compound P39B] , what is its reported Relative Toxicity, Mustard Beetles?
Solution: 590

* * *

# Tested on: Ephestia kuhniella and Venturia canescens
# assay_details: Selective toxicity to Ephestia compared to Venturia (LD50 ratio)
# Type: in vivo
# condition_context: ratio from relative toxicity (LD50)
# Description: Experiments to compare the relative toxicity (LD50) of compound P39E with certain related compounds have been carried out towards both Ephestia kuhniella and Venturia canescens so that the relative toxicity to the two species can be calculated. […]
Measured Selectivity (ratio of toxicity to Ephestia compared to Venturia) accompanies every entry in the list below.
// keep it numeric: no unit symbol after the value

Would you please look over these solved cases?
Problem: For CC1(C)[C@H](C(=O)OCc2cccc(Oc3ccccc3)c2)[C@@H]1C=C(Cl)Cl [Compound P29L] , what is its reported Selectivity (ratio of toxicity to Ephestia compared to Venturia)?
Solution: 2.3

Problem: Here is the next compound: CC1(C)[C@H](C=C(Cl)Cl)[C@H]1C(=O)OCc1cccc(Oc2ccccc2)c1 [Compound P29M]
Solution: 2.8

Problem: Here is the next compound: CC1(C)[C@H](C(=O)OC(C#N)c2cccc(C(=O)c3ccccc3)c2)[C@@H]1C=C(Br)Br (stereo partly shown) [Compound P39E]
Solution: 7.9

Continue with the next compound.
Problem: For CC1(C)C(C=C(Br)Br)C1C(=O)OC(C#N)c1cccc(Oc2ccccc2)c1 (stereo not drawn) [P29B (crystalline isomer)] , what is its reported Selectivity (ratio of toxicity to Ephestia compared to Venturia)?
Solution: 3.6
